- PROTOCOL SUMMARY: Pharmacokinetic parameters, i.v. and p.o.
- Type: in vivo
- ASSAY SETUP: plasma, iv; average of three runs
REPORTED PROPERTY: MRT inf (min)
Just the number please, in min, no unit attached.

Q) Endpoint output: MRT inf of [2H]C([2H])([2H])Oc1cc2cc(C(=O)CCC(=O)O)sc2cc1OC([2H])([2H])[2H] . Value?
A) 15.6

----------
- PROTOCOL SUMMARY: Pharmacokinetic parameters, i.v. and p.o.
- Format: in vivo
- ASSAY SETUP: plasma, po; average of three runs
REPORTED PROPERTY: MRT inf (h)
Just the number please, in h, no unit attached.

Q) Endpoint output: MRT inf of [2H]C([2H])([2H])Oc1cc2cc(C(=O)CCC(=O)O)sc2cc1OC([2H])([2H])[2H] . Value?
A) 1.1
